- Tested on: CDK2 (human)
- Assay protocol: KINOMEscan competition binding
- Measurement conditions: compound 10.0 µM
Measured kinase still bound, per cent of control accompanies every entry in the list below.

{"Compound structure": "Cc1ccc(NC(=O)c2cccc(C(C)(C)C#N)c2)cc1Nc1ccc2ncn(C)c(=O)c2c1", "Tested on": "CDK2 (human)", "kinase still bound, per cent of control / %": 100}
{"Compound structure": "CN(C)C/C=C/C(=O)Nc1cccc(Nc2ncc3c(n2)N(C)c2ccccc2C(=O)N3C)c1", "Tested on": "CDK2 (human)", "kinase still bound, per cent of control / %": 94}
{"Compound structure": "N#Cc1c(NC(=O)c2cccc3ccccc23)sc2c1CCCC2", "Tested on": "CDK2 (human)", "kinase still bound, per cent of control / %": 95}
{"Compound structure": "Nc1ccc(-c2ccc3ncc4ccc(=O)n(-c5cccc(C(F)(F)F)c5)c4c3c2)cn1", "Tested on": "CDK2 (human)", "kinase still bound, per cent of control / %": 67}
{"Compound structure": "C=CC(=O)Nc1cccc(Oc2nc(Nc3ccc(N4CCN(C)CC4)cc3OC)ncc2Cl)c1", "Tested on": "CDK2 (human)", "kinase still bound, per cent of control / %": 100}

###

- Tested on: DAPK1 (human) (UniProt P53355)
- Sequence (P53355 whole entry, looked up): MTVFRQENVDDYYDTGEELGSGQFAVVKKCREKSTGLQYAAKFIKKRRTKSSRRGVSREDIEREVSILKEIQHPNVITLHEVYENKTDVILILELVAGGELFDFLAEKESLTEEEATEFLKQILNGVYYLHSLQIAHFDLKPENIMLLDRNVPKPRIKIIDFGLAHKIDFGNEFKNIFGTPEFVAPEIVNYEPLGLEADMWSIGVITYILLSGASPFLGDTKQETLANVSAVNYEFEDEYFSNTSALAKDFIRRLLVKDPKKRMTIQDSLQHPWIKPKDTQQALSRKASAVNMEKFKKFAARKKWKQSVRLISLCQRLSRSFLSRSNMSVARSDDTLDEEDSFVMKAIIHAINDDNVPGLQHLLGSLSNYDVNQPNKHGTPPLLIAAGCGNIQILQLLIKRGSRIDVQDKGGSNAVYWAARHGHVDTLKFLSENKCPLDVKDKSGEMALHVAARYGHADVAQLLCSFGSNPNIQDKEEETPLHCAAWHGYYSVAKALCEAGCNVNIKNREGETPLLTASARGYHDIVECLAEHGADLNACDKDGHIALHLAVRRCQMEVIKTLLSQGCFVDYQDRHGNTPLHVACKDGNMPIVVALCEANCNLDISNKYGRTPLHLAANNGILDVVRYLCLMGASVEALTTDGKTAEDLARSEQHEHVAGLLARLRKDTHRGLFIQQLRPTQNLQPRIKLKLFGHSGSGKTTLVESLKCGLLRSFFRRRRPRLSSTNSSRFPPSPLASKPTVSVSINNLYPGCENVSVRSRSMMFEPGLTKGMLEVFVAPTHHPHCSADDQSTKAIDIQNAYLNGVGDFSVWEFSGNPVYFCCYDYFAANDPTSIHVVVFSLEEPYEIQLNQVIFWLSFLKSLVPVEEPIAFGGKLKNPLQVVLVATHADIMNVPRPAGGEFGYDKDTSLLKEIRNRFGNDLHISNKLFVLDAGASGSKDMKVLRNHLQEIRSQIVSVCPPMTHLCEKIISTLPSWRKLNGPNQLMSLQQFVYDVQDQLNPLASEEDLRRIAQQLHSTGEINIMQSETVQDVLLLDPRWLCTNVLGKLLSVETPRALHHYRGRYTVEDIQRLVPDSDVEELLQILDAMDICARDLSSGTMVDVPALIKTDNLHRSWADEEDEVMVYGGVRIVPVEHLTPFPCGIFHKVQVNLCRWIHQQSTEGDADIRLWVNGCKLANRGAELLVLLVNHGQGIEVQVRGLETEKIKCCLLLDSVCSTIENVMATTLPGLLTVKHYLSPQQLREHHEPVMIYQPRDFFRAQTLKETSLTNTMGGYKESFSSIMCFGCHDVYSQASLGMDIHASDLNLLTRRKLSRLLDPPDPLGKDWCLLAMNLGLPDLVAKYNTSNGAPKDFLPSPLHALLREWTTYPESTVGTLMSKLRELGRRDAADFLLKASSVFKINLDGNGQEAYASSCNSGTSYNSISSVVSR
- Assay protocol: KINOMEscan competition binding
- Measurement conditions: compound 10.0 µM
Measured kinase still bound, per cent of control accompanies every entry in the list below.

{"Compound structure": "Cc1cc([C@@H](C)Nc2ccccc2C(=O)O)c2nc(N3CCOCC3)cc(=O)n2c1", "kinase still bound, per cent of control, %": 95}
{"Compound structure": "C=CC(=O)Nc1cccc(Oc2nc(Nc3ccc(N4CCN(C)CC4)cc3OC)ncc2Cl)c1", "kinase still bound, per cent of control, %": 22}
{"Compound structure": "CN(C)C/C=C/C(=O)Nc1cccc(Nc2ncc3c(n2)N(C)c2ccccc2C(=O)N3C)c1", "kinase still bound, per cent of control, %": 52}
{"Compound structure": "O=C(NC1CC1)c1cccc(-c2ccc3c(NC(=O)C4CC4)n[nH]c3c2)c1", "kinase still bound, per cent of control, %": 91}
{"Compound structure": "CCC(=O)N1CCN(c2ccc(-n3c(=O)ccc4cnc5ccc(-c6cnc7ccccc7c6)cc5c43)cc2C(F)(F)F)CC1", "kinase still bound, per cent of control, %": 96}
{"Compound structure": "COc1cc(C(=O)NC2CCN(C)CC2)ccc1Nc1ncc2c(n1)N(C1CCCC1)CCC(=O)N2C(C)C", "kinase still bound, per cent of control, %": 100}
{"Compound structure": "CC[C@@H]1C(=O)N(C)c2cnc(Nc3ccc(C(=O)NC4CCN(C)CC4)cc3OC)nc2N1C1CCCC1", "kinase still bound, per cent of control, %": 5.4}
{"Compound structure": "Cc1ccc2nc(NCCN)c3ncc(C)n3c2c1", "kinase still bound, per cent of control, %": 47}
{"Compound structure": "Cc1ccc(C(=O)Nc2cccc(C(F)(F)F)c2)cc1Nc1cncc(C(N)=O)c1", "kinase still bound, per cent of control, %": 100}

###

- Tested on: TAOK1 (human) (UniProt Q7L7X3)
- Sequence (Q7L7X3 whole entry, looked up): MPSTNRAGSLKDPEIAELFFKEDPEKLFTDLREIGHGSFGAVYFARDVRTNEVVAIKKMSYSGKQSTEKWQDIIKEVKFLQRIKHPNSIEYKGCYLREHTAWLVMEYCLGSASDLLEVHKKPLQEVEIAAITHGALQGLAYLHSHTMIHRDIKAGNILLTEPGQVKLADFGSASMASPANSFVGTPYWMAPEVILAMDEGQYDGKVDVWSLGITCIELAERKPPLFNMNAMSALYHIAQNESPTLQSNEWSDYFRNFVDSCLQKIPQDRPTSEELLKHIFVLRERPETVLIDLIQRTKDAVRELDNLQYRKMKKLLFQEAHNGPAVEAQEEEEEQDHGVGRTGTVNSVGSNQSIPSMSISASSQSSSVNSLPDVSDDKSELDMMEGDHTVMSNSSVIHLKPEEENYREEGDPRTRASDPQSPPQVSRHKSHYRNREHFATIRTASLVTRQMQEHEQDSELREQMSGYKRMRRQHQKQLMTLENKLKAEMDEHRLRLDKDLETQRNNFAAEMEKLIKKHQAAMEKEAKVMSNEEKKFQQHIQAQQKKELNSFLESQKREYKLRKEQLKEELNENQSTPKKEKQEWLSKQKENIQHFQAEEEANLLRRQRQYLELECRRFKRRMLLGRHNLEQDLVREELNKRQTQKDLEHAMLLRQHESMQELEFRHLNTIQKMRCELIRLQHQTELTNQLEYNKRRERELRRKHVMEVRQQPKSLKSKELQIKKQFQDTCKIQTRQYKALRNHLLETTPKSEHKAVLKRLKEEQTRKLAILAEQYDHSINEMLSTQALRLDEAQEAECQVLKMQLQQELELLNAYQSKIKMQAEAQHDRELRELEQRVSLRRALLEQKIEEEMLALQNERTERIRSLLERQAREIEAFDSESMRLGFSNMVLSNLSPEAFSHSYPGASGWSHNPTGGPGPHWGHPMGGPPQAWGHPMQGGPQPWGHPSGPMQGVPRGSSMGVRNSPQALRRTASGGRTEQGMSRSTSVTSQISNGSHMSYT
- Assay protocol: KINOMEscan competition binding
- Measurement conditions: compound 10.0 µM
Measured kinase still bound, per cent of control accompanies every entry in the list below.

{"Compound structure": "Nc1ccc(-c2ccc3ncc4ccc(=O)n(-c5cccc(C(F)(F)F)c5)c4c3c2)cn1", "kinase still bound, per cent of control (%)": 62}
{"Compound structure": "O=C(O)c1ccc(Nc2ncc3c(n2)-c2ccc(Cl)cc2C(c2c(F)cccc2F)=NC3)cc1", "kinase still bound, per cent of control (%)": 71}
{"Compound structure": "COc1cc(N2CCN(C)CC2)ccc1Nc1nc(N)c(C(=O)c2c(Cl)cccc2Cl)s1", "kinase still bound, per cent of control (%)": 52}
{"Compound structure": "Cc1ccc2nc(NCCN)c3ncc(C)n3c2c1", "kinase still bound, per cent of control (%)": 66}
{"Compound structure": "O=C1Nc2ccc(I)cc2/C1=C/c1cc(Br)c(O)c(Br)c1", "kinase still bound, per cent of control (%)": 54}
{"Compound structure": "Cc1ccc(C(=O)Nc2cccc(C(F)(F)F)c2)cc1Nc1cncc(C(N)=O)c1", "kinase still bound, per cent of control (%)": 100}
{"Compound structure": "CC[C@@H]1C(=O)N(C)c2cnc(Nc3ccc(C(=O)NC4CCN(C)CC4)cc3OC)nc2N1C1CCCC1", "kinase still bound, per cent of control (%)": 100}
{"Compound structure": "C=CC(=O)Nc1cccc(Nc2nc(N[C@H]3CC[C@H](N(C)C)CC3)nc3c2ncn3C(C)C)c1", "kinase still bound, per cent of control (%)": 35}
{"Compound structure": "Cn1c(=O)n(-c2ccc(C(C)(C)C#N)cc2)c2c3cc(-c4cnc5ccccc5c4)ccc3ncc21", "kinase still bound, per cent of control (%)": 100}

###

- Tested on: UniProt Q9BYT3
- Sequence (Q9BYT3 whole entry, looked up): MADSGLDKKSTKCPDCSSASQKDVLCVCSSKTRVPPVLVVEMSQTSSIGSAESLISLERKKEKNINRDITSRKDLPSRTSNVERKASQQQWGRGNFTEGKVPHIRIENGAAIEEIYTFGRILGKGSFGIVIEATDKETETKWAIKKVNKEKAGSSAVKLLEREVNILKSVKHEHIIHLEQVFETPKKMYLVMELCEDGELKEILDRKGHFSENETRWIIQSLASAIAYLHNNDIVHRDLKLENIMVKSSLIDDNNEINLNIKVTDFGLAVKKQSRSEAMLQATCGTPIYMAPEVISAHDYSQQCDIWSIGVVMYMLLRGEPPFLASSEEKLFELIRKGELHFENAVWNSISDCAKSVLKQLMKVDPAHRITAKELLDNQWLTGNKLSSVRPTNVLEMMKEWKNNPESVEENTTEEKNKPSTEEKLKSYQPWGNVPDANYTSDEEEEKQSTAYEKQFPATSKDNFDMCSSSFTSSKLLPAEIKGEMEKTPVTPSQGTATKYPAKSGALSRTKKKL
- Assay protocol: KINOMEscan competition binding
- Measurement conditions: compound 10.0 µM
Threshold check on kinase still bound, per cent of control: strictly below 70% is label 1; on or above 70% is label 0.

{"Molecule": "Cc1ccc2nc(NCCN)c3ncc(C)n3c2c1", "Class label": "label 0"}
{"Molecule": "COc1cc(C(=O)NC2CCN(C)CC2)ccc1Nc1ncc2c(n1)N(C1CCCC1)C(C)CC(=O)N2C (centres undefined)", "Class label": "label 1"}
{"Molecule": "COc1cc(C(=O)NC2CCN(C)CC2)ccc1Nc1ncc2c(n1)N(C1CCCC1)CCC(=O)N2C(C)C", "Class label": "label 1"}
{"Molecule": "C=CC(=O)Nc1cc(NC(=O)c2ccc(C)c(NC(=O)c3ccno3)c2)cc(C(F)(F)F)c1", "Class label": "label 0"}
{"Molecule": "Cc1cc([C@@H](C)Nc2ccccc2C(=O)O)c2nc(N3CCOCC3)cc(=O)n2c1", "Class label": "label 0"}
{"Molecule": "C=CC(=O)Nc1cccc(Nc2nc(N[C@H]3CC[C@H](N(C)C)CC3)nc3c2ncn3C(C)C)c1", "Class label": "label 1"}
{"Molecule": "Nc1ccc(-c2ccc3ncc4ccc(=O)n(-c5cccc(C(F)(F)F)c5)c4c3c2)cn1", "Class label": "label 0"}
{"Molecule": "CCCS(=O)(=O)Nc1ccc(F)c(C(=O)c2c[nH]c3ncc(-c4ccc(Cl)cc4)cc23)c1F", "Class label": "label 0"}
{"Molecule": "CCN1CCN(Cc2ccc(Nc3ncc4c(n3)N(C)c3ccccc3C(=O)N4C)cc2C(F)(F)F)CC1", "Class label": "label 1"}
{"Molecule": "N#Cc1c(NC(=O)c2cccc3ccccc23)sc2c1CCCC2", "Class label": "label 0"}
{"Molecule": "O=C(NC1CC1)c1cccc(-c2ccc3c(NC(=O)C4CC4)n[nH]c3c2)c1", "Class label": "label 0"}
{"Molecule": "O=C(NOC[C@H](O)CO)c1ccc(F)c(F)c1Nc1ccc(I)cc1F", "Class label": "label 0"}
{"Molecule": "CCC(=O)N1CCN(c2ccc(-n3c(=O)ccc4cnc5ccc(-c6cnc7ccccc7c6)cc5c43)cc2C(F)(F)F)CC1", "Class label": "label 0"}
{"Molecule": "CCOc1cc2ncc(C#N)c(Nc3ccc(OCc4ccccn4)c(Cl)c3)c2cc1NC(=O)/C=C/CN(C)C", "Class label": "label 1"}
{"Molecule": "Cc1ccc(NC(=O)c2cccc(C(C)(C)C#N)c2)cc1Nc1ccc2ncn(C)c(=O)c2c1", "Class label": "label 0"}
{"Molecule": "Cn1c(=O)n(-c2ccc(C(C)(C)C#N)cc2)c2c3cc(-c4cnc5ccccc5c4)ccc3ncc21", "Class label": "label 0"}
{"Molecule": "COc1cc(N2CCN(C)CC2)ccc1Nc1nc(N)c(C(=O)c2c(Cl)cccc2Cl)s1", "Class label": "label 0"}
{"Molecule": "C[C@@H](Oc1cc(-n2cnc3ccc(CN4CCN(C)CC4)cc32)sc1C(N)=O)c1ccccc1C(F)(F)F", "Class label": "label 0"}
{"Molecule": "O=C1Nc2ccc(I)cc2/C1=C/c1cc(Br)c(O)c(Br)c1", "Class label": "label 0"}

###

Measured kinase still bound, per cent of control accompanies every entry in the list below.
- Tested on: FRK (human)
- Assay protocol: KINOMEscan competition binding
- Measurement conditions: compound 10.0 µM
Quantity measured: kinase still bound, per cent of control (%)

{"Compound structure": "CCN1CCN(Cc2ccc(Nc3ncc4c(n3)N(C)c3ccccc3C(=O)N4C)cc2C(F)(F)F)CC1", "Measurement": 19}
{"Compound structure": "C=CC(=O)Nc1cccc(Oc2nc(Nc3ccc(N4CCN(C)CC4)cc3OC)ncc2Cl)c1", "Measurement": 28}
{"Compound structure": "CN(C)C/C=C/C(=O)Nc1cccc(Nc2ncc3c(n2)N(C)c2ccccc2C(=O)N3C)c1", "Measurement": 18}
{"Compound structure": "Cc1ccc(NC(=O)c2cccc(C(C)(C)C#N)c2)cc1Nc1ccc2ncn(C)c(=O)c2c1", "Measurement": 2.8}
{"Compound structure": "OCCCNc1cc(-c2ccnc(Nc3cccc(Cl)c3)n2)ccn1", "Measurement": 100}
{"Compound structure": "Cc1cc([C@@H](C)Nc2ccccc2C(=O)O)c2nc(N3CCOCC3)cc(=O)n2c1", "Measurement": 83}
{"Compound structure": "CCC(=O)N1CCN(c2ccc(-n3c(=O)ccc4cnc5ccc(-c6cnc7ccccc7c6)cc5c43)cc2C(F)(F)F)CC1", "Measurement": 60}
{"Compound structure": "Cc1ccc(C(=O)Nc2cccc(C(F)(F)F)c2)cc1Nc1cncc(C(N)=O)c1", "Measurement": 1.3}
{"Compound structure": "CC[C@@H]1C(=O)N(C)c2cnc(Nc3ccc(C(=O)NC4CCN(C)CC4)cc3OC)nc2N1C1CCCC1", "Measurement": 100}
